organism: Rattus norvegicus; test: DrugMatrix - Regimen: Daily Repeat; format: toxicity, organism-based, Sprague-Dawley; parameters: regimen Daily Repeat, gender Male, age 6-8 weeks; settings: in vivo, po, 1500 mg/kg, 72 h, tissue Blood, route oral GAVAGE, dose level High, time 3 day, vehicle .5 % CMC
Assignment: determine reported NEUTROPHIL for the given molecules.
Could you kindly put the unit after your number?

A selection of reference data follows.
1) C[C@@H](O)[C@H]1C(=O)N2C(C(=O)O)=C(S[C@@H]3CN[C@H](C(=O)N(C)C)C3)[C@H](C)[C@H]12 [MEROPENEM]: 6.33%
2) Nc1nc2c(c(=O)[nH]1)N(C=O)C(CNc1ccc(C(=O)N[C@@H](CCC(=O)O)C(=O)O)cc1)CN2 (stereo not given in full) [LEUCOVORIN]: 13.33%
3) O=c1cc(-c2ccccc2)oc2ccc3ccccc3c12 [BETA-NAPHTHOFLAVONE]: 13.1%
4) CCOC(=O)[C@H](CCc1ccccc1)N[C@@H](C)C(=O)N1CCC[C@H]1C(=O)O: 8%

Query: Form field: reported NEUTROPHIL of CC(C)(Sc1cc(C(C)(C)C)c(O)c(C(C)(C)C)c1)Sc1cc(C(C)(C)C)c(O)c(C(C)(C)C)c1 [PROBUCOL]
Reply: 10%
